tested on: MDA-MB-231 breast; experiment: NCI-60 one-dose screen, 48 h; details: 10 µM
About 83,000 compounds went through this panel and 20% of them were active in at least one assay; those are over-represented in the sample as a whole. The source made the active and inactive calls. How the source made its calls: active means growth percent below 10; inactive means the rest.
# output must be one of active, inactive

// below: answered compounds
Hi, do you know how `BrC/C=C/C[P+](c1ccccc1)(c1ccccc1)c1ccccc1` came out in this test?
inactive

Hi, do you know how `CCCCCCCCCCCCCCCCCN` came out in this test?
inactive

Hi, do you know how `S=c1[nH]nc(Cc2ccccc2)c(=S)[nH]1` came out in this test?
inactive

Hi, do you know how `O=C(/C(=C/c1ccccc1)CBr)c1ccccc1` came out in this test?
inactive

Hi, do you know how `Cc1cnc(/C=N\NC(N)=S)c2cccc(N)c12` came out in this test?
inactive

Hi, do you know how `N#C/C(=C1C=C/C(=N\O)C(Cl)=C\1)c1ccccc1` came out in this test?
inactive

Hi, do you know how `Cc1cc(NCCCN(C)C)c2ccc3c(ccc4c(NCCCN(C)C)cc(C)nc43)c2n1` came out in this test?
active

Hi, do you know how `COc1cc(C(C)(C)C)cc(OC)c1C(O)(c1c(OC)cc(C(C)(C)C)cc1OC)c1c(OC)cc(C(C)(C)C)cc1OC` came out in this test?
active

---
Hi, do you know how CSc1ccc2c(c1)C(N1CCN(C)CC1)Cc1ccccc1S2 (centres undefined) came out in this test?
active

---

tested on: HOP-62 NSCLC; assay: NCI-60 one-dose screen, 48 h; details: 10 µM
The panel holds about 83,000 compounds, 20% with a hit somewhere; the sample as a whole holds those more often. The source made the active and inactive calls. How the source made its calls: active means growth percent below 10; inactive means the rest.
# output must be one of yes for active, no for inactive

// below: answered compounds
Hi, do you know how `COc1cc(C(C)(C)C)cc(OC)c1C(O)(c1c(OC)cc(C(C)(C)C)cc1OC)c1c(OC)cc(C(C)(C)C)cc1OC` came out in this test?
yes

Hi, do you know how `S=c1[nH]nc(Cc2ccccc2)c(=S)[nH]1` came out in this test?
no

Hi, do you know how `O=C(/C(=C/c1ccccc1)CBr)c1ccccc1` came out in this test?
no

Hi, do you know how `N#C/C(=C1C=C/C(=N\O)C(Cl)=C\1)c1ccccc1` came out in this test?
no

Hi, do you know how `Cc1cc(NCCCN(C)C)c2ccc3c(ccc4c(NCCCN(C)C)cc(C)nc43)c2n1` came out in this test?
yes

---
Hi, do you know how `BrC/C=C/C[P+](c1ccccc1)(c1ccccc1)c1ccccc1` came out in this test?
no

Hi, do you know how `CN(C)CCC(=O)c1c[nH]c2ccccc12` came out in this test?
no

---

test system: SNB-19 CNS; assay: NCI-60 one-dose screen, 48 h (100 = growth as untreated, 0 = no growth, -100 = all killed); details: 10 µM
About 83,000 compounds went through this panel and 20% of them were active in at least one assay; those are over-represented in the sample as a whole.
Below, each of the molecules is paired with its reported growth value.
The answer is to be given in %; state only the numeric part.

Previously resolved entries follow.
Quickly give me recorded growth for `CN(C)CCC(=O)c1c[nH]c2ccccc12`
112

Quickly give me recorded growth for `N#C/C(=C1C=C/C(=N\O)C(Cl)=C\1)c1ccccc1`
80.5

Quickly give me recorded growth for CSc1ccc2c(c1)C(N1CCN(C)CC1)Cc1ccccc1S2 (centres undefined)
54.7

Quickly give me recorded growth for `Cc1cnc(/C=N\NC(N)=S)c2cccc(N)c12`
24

Quickly give me recorded growth for `CCCCCCCCCCCCCCCCCN`
102

Quickly give me recorded growth for `O=C(/C(=C/c1ccccc1)CBr)c1ccccc1`
90.9

Quickly give me recorded growth for `Cc1cc(NCCCN(C)C)c2ccc3c(ccc4c(NCCCN(C)C)cc(C)nc43)c2n1`
-32.8

Quickly give me recorded growth for `Nc1ccc2cc(Br)c3ccccc3c2c1`
56.3

---
Quickly give me recorded growth for `S=c1[nH]nc(Cc2ccccc2)c(=S)[nH]1`
109
